assay: Drug excretion in male Sprague-Dawley rat urine treated with [14C]-AMG 221 at 2 mg/kg, po measured over 24 hrs by LC-MS/HPLC radiometric analysis; type: ADME, organism-based; set-up: dose 2 mg/kg, route oral; settings: in vivo
Property: Drug excretion; scope: individual compounds
Form entry: value (%) — number only.

Examples with answers:
C[C@@H](CO)[C@]1(C)SC(N[C@H]2C[C@H]3C[C@@H]2[C@H](O)C3)=NC1=O: 8.3
CC(O)(CO)[C@]1(C)SC(N[C@H]2C[C@@H]3CC[C@H]2C3)=NC1=O (some centres not stated): 8.3
CC(C)[C@]1(C)SC(N[C@H]2C[C@H]3C[C@@H]2C[C@@H]3O)=NC1=O: 17
C[C@H](CO)[C@]1(C)SC(N[C@H]2C[C@@H]3CC[C@H]2C3)=NC1=O: 29
C[C@H](CO)[C@]1(C)SC(N[C@H]2C[C@H]3C[C@@H]2C[C@H]3O)=NC1=O: 8.3
C[C@@H](CO)[C@]1(C)SC(N[C@H]2C[C@@H]3CC[C@H]2C3)=NC1=O: 29

Query :: I have this compound here, `CC(C)[C@]1(C)SC(N[C@H]2C[C@H]3C[C@@H]2[C@H](O)C3)=NC1=O` , and I need its recorded Drug excretion.
Result :: 29

====

experiment: Clearance in iv dosed rat; assay type: ADME, organism-based; conditions: in vivo
Measured metric: clearance

Query :: I have this compound here, `CC(C)[C@]1(C)SC(N[C@H]2C[C@@H]3CC[C@H]2C3)=NC1=O` , and I need its recorded clearance.
Result :: 50 mL/min/kg

====

experiment: Drug excretion in female Sprague-Dawley rat feces treated with [14C]-AMG 221 at 2 mg/kg, po measured over 24 hrs by LC-MS/HPLC radiometric analysis; format: ADME, organism-based; set-up: dose 2 mg/kg, route oral; conditions: in vivo
Measured metric: Drug excretion (%)
Form entry: value (%) — number only.

CC(C)(O)[C@]1(C)SC(N[C@H]2C[C@H]3C[C@@H]2C[C@@H]3O)=NC1=O: 24
CC(C)(O)[C@]1(C)SC(N[C@H]2C[C@H]3C[C@@H]2C[C@H]3O)=NC1=O: 24
CC(O)(CO)[C@]1(C)SC(N[C@H]2C[C@@H]3CC[C@H]2C3)=NC1=O (stereo not given in full): 24
CC(C)(O)[C@]1(C)SC(N[C@H]2C[C@@H]3CC[C@H]2C3)=NC1=O: 37

Query :: I have this molecule here, `CC(C)[C@]1(C)SC(N[C@H]2C[C@H]3C[C@@H]2C[C@H]3O)=NC1=O` , and I need its recorded Drug excretion.
Result :: 37

Query :: I have this molecule here, `C[C@@H](CO)[C@]1(C)SC(N[C@H]2C[C@@H]3CC[C@H]2C3)=NC1=O` , and I need its recorded Drug excretion.
Result :: 37

Query :: I have this molecule here, `C[C@@H](CO)[C@]1(C)SC(N[C@H]2C[C@H]3C[C@@H]2C[C@H]3O)=NC1=O` , and I need its recorded Drug excretion.
Result :: 24

Query :: I have this molecule here, `CC(C)(O)[C@]1(C)SC(N[C@H]2C[C@H]3C[C@@H]2[C@H](O)C3)=NC1=O` , and I need its recorded Drug excretion.
Result :: 24

Query :: I have this molecule here, `C[C@@H](CO)[C@]1(C)SC(N[C@H]2C[C@H]3C[C@@H]2[C@H](O)C3)=NC1=O` , and I need its recorded Drug excretion.
Result :: 24

Query :: I have this molecule here, `CC(C)[C@]1(C)SC(N[C@H]2C[C@H]3C[C@@H]2[C@H](O)C3)=NC1=O` , and I need its recorded Drug excretion.
Result :: 37

The reported measurements were obtained from ChEMBL document CHEMBL3525943.
